- Tested on: proteus mirabilis IFM OM-19
Note to self: MIC under 0.8 µg/mL means Met, ties and anything higher get Not met.

Some solved entries appear below for comparison.
Bench note: check whether O=C(O)C1=C(CSc2ccc(S)nn2)CS[C@@H]2[C@H](NC(=O)[C@H](NC(=O)c3cnccc3O)c3ccccc3)C(=O)N12 [Example 1] shows MIC below 0.8 µg/mL
Met

Bench note: check whether CC(=O)Nc1nc(S)nc(SCC2=C(C(=O)O)N3C(=O)[C@@H](NC(=O)[C@H](NC(=O)c4cnccc4O)c4ccccc4)[C@H]3SC2)n1 [Example 4] shows MIC below 0.8 µg/mL
Met

Bench note: check whether Cc1nnc(SCC2=C(C(=O)O)N3C(=O)[C@@H](NC(=O)Cn4cnnn4)[C@H]3SC2)s1 [Cephazolin, reference compound] shows MIC below 0.8 µg/mL
Not met

We next turn to a different compound, shown below.
Bench note: check whether Cn1nnnc1SCC1=C(C(=O)O)N2C(=O)C(NC(=O)C(NC(=O)c3cccnc3)c3ccccc3)C2SC1 (centres unmarked) [Example C-1, reference compound] shows MIC below 0.8 µg/mL
Not met

----------
- Test system: Staphylococcus Onuma
- assay.method.text: MIC against Staphylococcus Onuma
- Type: cell-based
- condition.set: Staphylococcus
value.kind: MIC (µg/mL)
Reply with just the number (in µg/mL).

Reference set (2 entries):
Field MIC (entry Cc1nnc(SCC2=C(C(=O)O)N3C(=O)[C@@H](NC(=O)Cn4cnnn4)[C@H]3SC2)s1 [Cephazolin, reference compound] ) reads 1.56

Field MIC (entry Cc1c(S)sc(SCC2=C(C(=O)O)N3C(=O)[C@@H](NC(=O)[C@H](NC(=O)c4cnccc4O)c4ccccc4)[C@H]3SC2)c(C)c1=O ) reads 12.5

Switching to the query record.
Field MIC (entry O=C(O)C1=C(CSc2ccc(S)nn2)CS[C@@H]2[C@H](NC(=O)[C@H](NC(=O)c3cnccc3O)c3ccccc3)C(=O)N12 ) reads 6.25

----------
- Tested on: Klebsiella pneumoniae ATCC 10031
- assay.method.text: MIC against Klebsiella pneumoniae ATCC 10031
- Assay type: cell-based
- condition.set: Klebsiella pneumoniae, ATCC10031
Catalogue of molecules with associated MIC
Reply with just the number (in µg/mL).

Field MIC (entry CSc1nc(S)cc(SCC2=C(C(=O)O)N3C(=O)[C@@H](NC(=O)[C@H](NC(=O)c4cnccc4O)c4ccccc4)[C@H]3SC2)n1 ) reads 12.5

Field MIC (entry CC(=O)OCC1=C(C(=O)O)N2C(=O)[C@@H](NC(=O)Cc3cccs3)[C@H]2SC1 [Cephalothin, reference compound] ) reads 0.78

Switching to the query record.
Field MIC (entry CC1=C(C(=O)O)N2C(=O)[C@@H](NC(=O)[C@H](N)c3ccccc3)[C@H]2SC1 [Cephalexin, reference compound] ) reads 3

----------
- Test system: Staphylococcus Onuma
- assay.method.text: MIC against Staphylococcus Onuma
- Format: cell-based
- condition.set: Staphylococcus
Catalogue of compounds with associated MIC
Reply with just the number (in µg/mL).

Reference set (2 entries):
Field MIC (entry CC(=O)OCC1=C(C(=O)O)N2C(=O)[C@@H](NC(=O)Cc3cccs3)[C@H]2SC1 [Cephalothin, reference compound] ) reads 0.39

Field MIC (entry O=C(O)C1=C(CSc2cc(S)ncn2)CS[C@@H]2[C@H](NC(=O)[C@H](NC(=O)c3cnccc3O)c3ccccc3)C(=O)N12 [Example 5] ) reads 6.25

Switching to the query record.
Field MIC (entry CC1=C(C(=O)O)N2C(=O)[C@@H](NC(=O)[C@H](N)c3ccccc3)[C@H]2SC1 [Cephalexin, reference compound] ) reads 12.5

----------
- Tested on: Bacillus subtilis ATCC 6633
- assay.method.text: MIC against Bacillus subtilis ATCC 6633
- Type: cell-based
- condition.set: ATCC6633; Bacillus subtilis ATCC 6633; read-out: MIC
Catalogue of molecules with associated MIC
Reply with just the number (in µg/mL).

Field MIC (entry Cc1nnc(SCC2=C(C(=O)O)N3C(=O)[C@@H](NC(=O)Cn4cnnn4)[C@H]3SC2)s1 [Cephazolin, reference compound] ) reads 0.19

Field MIC (entry CC(=O)OCC1=C(C(=O)O)N2C(=O)[C@@H](NC(=O)[C@H](N)c3ccccc3)[C@H]2SC1 [Cephaloglycin, reference compound] ) reads 0.3

Field MIC (entry O=C(O)C1=C(CSc2ccc(S)nn2)CS[C@@H]2[C@H](NC(=O)[C@H](NC(=O)c3cnccc3O)c3ccccc3)C(=O)N12 [Example 1] ) reads 0.39

Field MIC (entry Cc1nc(S)cc(SCC2=C(C(=O)O)N3C(=O)[C@@H](NC(=O)[C@H](NC(=O)c4cnccc4O)c4ccccc4)[C@H]3SC2)n1 [Example 2] ) reads 0.39

Field MIC (entry Cc1c(S)sc(SCC2=C(C(=O)O)N3C(=O)[C@@H](NC(=O)[C@H](NC(=O)c4cnccc4O)c4ccccc4)[C@H]3SC2)c(C)c1=O [Example 3] ) reads 0.78

Field MIC (entry Nc1nc(S)cc(SCC2=C(C(=O)O)N3C(=O)[C@@H](NC(=O)[C@H](NC(=O)c4cnccc4O)c4ccccc4)[C@H]3SC2)n1 [Example 6] ) reads 0.78

----------
- Tested on: Bacillus subtilis ATCC 6633
- assay.method.text: MIC against Bacillus subtilis ATCC 6633
- Assay type: cell-based
- condition.set: ATCC6633; Bacillus subtilis ATCC 6633; read-out: MIC
value.kind: log10(MIC) (log10 of the value in µg/mL)
Annotation: log10 of MIC, µg/mL basis.

Reference set (3 entries):
Field log10(MIC) (entry Cc1nnc(SCC2=C(C(=O)O)N3C(=O)C(NC(=O)C(NC(=O)c4cccnc4)c4ccccc4)C3SC2)s1 (centres unmarked) [Example C-2, reference compound] ) reads 0.19

Field log10(MIC) (entry CSc1nc(S)cc(SCC2=C(C(=O)O)N3C(=O)[C@@H](NC(=O)[C@H](NC(=O)c4cnccc4O)c4ccccc4)[C@H]3SC2)n1 ) reads -0.72

Field log10(MIC) (entry CC(=O)Nc1nc(S)nc(SCC2=C(C(=O)O)N3C(=O)[C@@H](NC(=O)[C@H](NC(=O)c4cnccc4O)c4ccccc4)[C@H]3SC2)n1 ) reads -0.11

Next:
Field log10(MIC) (entry Cn1nnnc1SCC1=C(C(=O)O)N2C(=O)C(NC(=O)C(NC(=O)c3cccnc3)c3ccccc3)C2SC1 (centres unmarked) [Example C-1, reference compound] ) reads 0.50

Field log10(MIC) (entry O=C(O)C1=C(CSc2cc(S)ncn2)CS[C@@H]2[C@H](NC(=O)[C@H](NC(=O)c3cnccc3O)c3ccccc3)C(=O)N12 ) reads -0.41

----------
- Tested on: staphylococcus Shimanishi
- assay.method.text: MIC against staphylococcus Shimanishi
- Assay type: cell-based
- condition.set: staphylococcus Shimanishi; read-out: MIC
Catalogue of compounds with associated MIC

Reference set (3 entries):
Entry CSc1nc(S)cc(SCC2=C(C(=O)O)N3C(=O)[C@@H](NC(=O)[C@H](NC(=O)c4cnccc4O)c4ccccc4)[C@H]3SC2)n1 , staphylococcus Shimanishi data, MIC value: 0.78 µg/mL

Entry CC(=O)Nc1nc(S)nc(SCC2=C(C(=O)O)N3C(=O)[C@@H](NC(=O)[C@H](NC(=O)c4cnccc4O)c4ccccc4)[C@H]3SC2)n1 , staphylococcus Shimanishi data, MIC value: 6.25 µg/mL

Entry Cc1nnc(SCC2=C(C(=O)O)N3C(=O)[C@@H](NC(=O)Cn4cnnn4)[C@H]3SC2)s1 [Cephazolin, reference compound] , staphylococcus Shimanishi data, MIC value: 0.78 µg/mL

Next:
Entry CC(=O)OCC1=C(C(=O)O)N2C(=O)[C@@H](NC(=O)[C@H](N)c3ccccc3)[C@H]2SC1 [Cephaloglycin, reference compound] , staphylococcus Shimanishi data, MIC value: 3 µg/mL

Entry Nc1nc(S)cc(SCC2=C(C(=O)O)N3C(=O)[C@@H](NC(=O)[C@H](NC(=O)c4cnccc4O)c4ccccc4)[C@H]3SC2)n1 , staphylococcus Shimanishi data, MIC value: 3.13 µg/mL

----------
- Tested on: proteus vulgaris OX 19US
- assay.method.text: MIC against proteus vulgaris OX 19US
- Format: cell-based
- condition.set: OX19US; proteus vulgaris OX 19US; read-out: MIC
- Text: Now, for illustrating the excellent pharmacological effects of the compounds of this invention, the values of MIC (γ/ml) of the compounds against various bacteria are shown in the following table, the compounds of this invention are shown by example numbers. 2. proteus vulgaris OX 19US
value.kind: MIC
Show the value, then the unit it is measured in.

Reference set (2 entries):
Field MIC (entry Cc1nnc(SCC2=C(C(=O)O)N3C(=O)[C@@H](NC(=O)Cn4cnnn4)[C@H]3SC2)s1 [Cephazolin, reference compound] ) reads 25 µg/mL

Field MIC (entry CSc1nc(S)cc(SCC2=C(C(=O)O)N3C(=O)[C@@H](NC(=O)[C@H](NC(=O)c4cnccc4O)c4ccccc4)[C@H]3SC2)n1 ) reads 0.39 µg/mL

Next:
Field MIC (entry O=C(O)C1=C(CSc2cc(S)ncn2)CS[C@@H]2[C@H](NC(=O)[C@H](NC(=O)c3cnccc3O)c3ccccc3)C(=O)N12 ) reads 0.78 µg/mL
